FYI, the data here is from patent US20040224958A1.

- Measured On: cdk2/cyclinA (Homo sapiens, UniProt P24941)
- Test Method Notes: Cyclin-Dependent Kinase Assay cdk2/cyclinA
- Cond: read-out: cdk2/A IC50
Some compounds, each annotated with its measured IC50.
Don't forget the unit after the value.

>>> measurement("CCCCn1c(=O)ccc2cnc(Nc3ccc(C(N)=O)cc3)nc21")
"699 nM"

Would you kindly look at the next entry?
Look up IC50: "CCCn1c(=O)ccc2cnc(Nc3ccc(Cl)c(C(F)(F)F)c3)nc21"
2670 nM

* * *

- Measured On: cdk2/cyclinA (Homo sapiens, UniProt P24941)
- Test Method Notes: Cyclin-Dependent Kinase Assay cdk2/cyclinA
- Cond: cdk2/A IC50
Parameter Measured: pIC50
FYI, pIC50 means -log10 of a concentration in mol per litre.

Please review the following examples before continuing.
>>> measurement("O=c1ccc2cnc(Nc3ccc4cn[nH]c4c3)nc2n1C1CCCC1")
7.45
>>> measurement("O=c1ccc2cnc(Nc3ccc(Cl)c(Cl)c3)nc2n1C1CCCC1")
6.11
>>> measurement("CCCn1c(=O)ccc2cnc(Nc3ccc(O)c(C)c3)nc21")
5.96
>>> measurement("CC(C)n1c(=O)ccc2cnc(Nc3ccc(C#N)cc3)nc21")
6.80

Let's switch to this compound now.
pIC50 lookup needed for "CC(C)n1c(=O)ccc2cnc(Nc3ccc(O)c(CN4CCOCC4)c3)nc21" , thanks.
6.14
